All values here come from patent US9815796B2.

Listed here: items and their measured Ki.
Target: human PDE2A1 (Homo sapiens (Human))
Sequence (O00408 other isoform, or with tags, fused parts or gaps): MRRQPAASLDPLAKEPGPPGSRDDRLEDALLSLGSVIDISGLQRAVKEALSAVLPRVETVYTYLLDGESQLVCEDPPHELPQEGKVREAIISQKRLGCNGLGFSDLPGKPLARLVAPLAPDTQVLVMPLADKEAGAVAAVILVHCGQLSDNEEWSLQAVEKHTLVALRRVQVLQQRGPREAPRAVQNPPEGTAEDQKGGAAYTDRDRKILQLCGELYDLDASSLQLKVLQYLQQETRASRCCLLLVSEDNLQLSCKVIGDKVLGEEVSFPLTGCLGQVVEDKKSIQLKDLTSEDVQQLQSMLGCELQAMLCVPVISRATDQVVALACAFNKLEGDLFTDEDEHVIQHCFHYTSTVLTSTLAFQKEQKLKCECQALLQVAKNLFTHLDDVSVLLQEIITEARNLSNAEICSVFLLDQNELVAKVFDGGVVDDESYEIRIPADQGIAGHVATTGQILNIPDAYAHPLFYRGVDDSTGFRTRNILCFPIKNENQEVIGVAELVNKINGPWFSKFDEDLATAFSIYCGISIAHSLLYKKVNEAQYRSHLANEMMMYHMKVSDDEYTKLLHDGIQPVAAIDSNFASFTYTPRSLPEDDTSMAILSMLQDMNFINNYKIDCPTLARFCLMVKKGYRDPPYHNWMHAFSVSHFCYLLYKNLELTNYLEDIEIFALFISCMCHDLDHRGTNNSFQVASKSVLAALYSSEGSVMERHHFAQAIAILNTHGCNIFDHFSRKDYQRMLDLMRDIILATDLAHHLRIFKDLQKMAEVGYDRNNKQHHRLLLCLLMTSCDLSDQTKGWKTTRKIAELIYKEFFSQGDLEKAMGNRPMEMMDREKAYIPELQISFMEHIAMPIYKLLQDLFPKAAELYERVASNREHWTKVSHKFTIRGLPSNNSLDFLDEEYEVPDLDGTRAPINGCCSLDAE
Assay: IMAP FP PDE selectivity panel, human PDE2A1
Type: biochemical
Conditions: Human PDE2, Lab B; read-out: Human PDE2 Ki (nM) - Lab B
Provide only the numeric value, understood in nM.

{"molecule": "COc1ccc(Cc2nc(C(=O)N[C@@H](c3ccc(C(F)(F)F)c(F)c3)C3CC3)cc(=O)[nH]2)cc1F [Example 522]", "Ki [nM]": 2.6}
{"molecule": "O=C(NC1(c2ccc(S(F)(F)(F)(F)F)cc2)CC1)c1cc(=O)[nH]c(-c2ccccc2)n1 [Example 553]", "Ki [nM]": 10}
{"molecule": "Cc1nc(C(=O)N[C@](C)(CO)c2ccc(C(F)(F)F)cc2)cc(=O)[nH]1 [Example 636]", "Ki [nM]": 19}
{"molecule": "COc1ccc(Cc2nc(C(=O)N[C@@H](c3ccc(C(F)(F)F)c(F)c3)C(C)(C)C)cc(=O)[nH]2)cc1F [Example 508]", "Ki [nM]": 0.8}

q: Determine from records and report Ki for Cc1nc(C(=O)N[C@]2(c3ccc(C(F)(F)F)cc3)C[C@@H]2C)cc(=O)[nH]1 (single isomer, unassigned) [Example 670]
a: 28

q: Answer with the recorded Ki of C[C@@H](NC(=O)c1cc(=O)[nH]c(-c2ccccc2)n1)c1ccc(C2CC2)cc1 [Example 423] only.
a: 5.6

q: Provide one value: measured Ki of CC(C)(C)[C@@H](NC(=O)c1cc(=O)[nH]c(-c2ncccn2)n1)c1ccc(OC(F)F)c(F)c1 [Example 589]
a: 22

q: Consider the molecule Cc1nc(C(=O)NC2(c3ccc(SC(F)(F)F)c(F)c3)CC2)cc(=O)[nH]1 [Example 261] and give its recorded Ki.
a: 33

q: Read off the recorded Ki for COc1ccc(Cc2nc(C(=O)N[C@@H](c3ccc(SC(F)(F)F)cc3)C3CC3)cc(=O)[nH]2)cc1F [Example 523]
a: 2.1

q: Provide one value: measured Ki of Cc1nc(C(=O)N[C@@H](c2ccc(C(F)F)c(F)c2)C2(C)CC2)cc(=O)[nH]1 [Example 647]
a: 52

q: Note Ki for the molecule shown: Cc1nc(C(=O)NC(c2ccc(SC(F)(F)F)c(F)c2)C2(C)CC2)cc(=O)[nH]1 (single isomer, unassigned) [Example 702]
a: 7.2

q: Please look at this molecule and report its Ki: C[C@](CO)(NC(=O)c1cc(=O)[nH]c(-c2ccccc2)n1)c1ccc(C(F)(F)F)cc1Cl [Example 643]
a: 0.5

q: Identify the reported Ki for the following entry. COc1ccc(Cc2nc(C(=O)N[C@@H](c3ccc(SC(F)(F)F)cc3)C(C)(C)C)cc(=O)[nH]2)cc1 [Example 465]
a: 0.62

q: Recall and state the measured Ki for Cc1nc(C(=O)N[C@@H](c2ccc(OC(F)(F)F)cc2)C(C)(C)O)cc(=O)[nH]1 [Example 724] .
a: 3.1

q: Quickly give me recorded Ki for CCC(C)(NC(=O)c1cc(=O)[nH]c(C)n1)c1ccc(C(F)(F)F)cc1F (single isomer, unassigned) [Example 719]
a: 7.7

q: Determine its reported Ki: Cc1nc(C(=O)N[C@@H](c2ccc(C(F)(F)F)cc2)C2(C)CC2)cc(=O)[nH]1 [Example 612]
a: 11

q: Return value of Ki for input C[C@@H](NC(=O)c1cc(=O)[nH]c(-c2ccccc2)n1)c1cc(F)c(C(F)(F)F)cc1F [Example 550] , no commentary.
a: 17

q: Quick one: give measured Ki for COc1cc(C(C)NC(=O)c2cc(=O)[nH]c(-c3ccccc3)n2)cc(OC)c1OC (stereo not drawn) [Example 351]
a: 224

q: Hello, please tell me recorded Ki for this one: Cc1nc(C(=O)N[C@@H](c2ccc(C3(C)CC3)cc2)C(C)C)cc(=O)[nH]1 [Example 532]
a: 16

q: Tell me its Ki given O=C(N[C@@H](c1ccc2c(c1)OC(F)(F)O2)C1CC1)c1cc(=O)[nH]c(-c2ncccn2)n1 [Example 591] as the entry.
a: 30
